System: LOX IMVI melanoma
measurement_notes: NCI-60 one-dose screen, 48 h
measurement_context: 10 µM
About 83,000 compounds went through this panel and 20% of them were active in at least one assay; those are over-represented in the sample as a whole. The source made the active and inactive calls. Rule for the calls: active = growth percent below 10; inactive = the rest.
Allowed answers: YES = active, NO = inactive

## Task Record lookup: outcome of this test for COc1cc(OC)cc(-c2ccc(-c3ccc(C(=N)N)cn3)o2)c1 ?
## Result YES

## Task Hi team, can someone confirm the assay call for CCOC(=O)c1sc(Nc2ncccn2)nc1-c1ccccn1 ?
## Result NO

## Task Just curious, what result did CS(=O)(=O)Nc1ccc(Nc2c3ccccc3nc3cc(Cl)ccc23)cc1 get here?
## Result NO

## Task Each compound tested received a call. Report the one for CCC1(C)OC(=O)NC1=O (centres undefined) .
## Result NO

###

Test system: K-562 leukemia
measurement_notes: NCI-60 one-dose screen, 48 h (100 = growth as untreated, 0 = no growth, -100 = all killed)
measurement_context: 10 µM
Compounds without any hit were thinned out: in the full panel of roughly 83,000, 20% have a hit.
measure_name: growth (%)
One number for each entry, in %.

Some solved cases for reference:
What the record says about C/C(=N\NC(=O)c1sc(=S)n(C)c1N)c1cc2ccccc2o1 : growth is -10.9

Given item COc1ccccc1S(=O)(=O)Nc1ccc2c(c1)CN(C)C(=O)N2 , the value recorded as its growth is 28.6

Recorded growth (compound CCOC(=O)Nc1ccc2c(c1)C(=O)N(CC)c1ccccc1O2 ): 8.79

Report growth for each item below.
1. O=C(CSc1nnc(-c2ccc(Cl)cc2)o1)c1ccccc1
2. Cc1cc(O)c(C2=NN(c3ccc(S(N)(=O)=O)cc3)C(c3ccc(N(C)C)cc3)C2)c(C)c1Cl (stereo not given)
3. COc1ccc(/C=C(\c2cc(OC)c(OC)c(OC)c2)c2nnc(-c3cccs3)o2)cc1

## Result
[102, 25, 89.5]

// batch mode: one growth value per listed entry
1. COc1ccc(C(=O)/C=C/c2cc(-c3ccc(OC)c(OC)c3)n[nH]2)cc1OC
2. COc1ccc(-c2nnc(SC/C(=N\O)c3ccccc3)o2)cc1
3. CCCCC(=O)N(c1ccc(Nc2c3ccccc3nc3cc([N+](=O)[O-])ccc23)cc1)S(C)(=O)=O
4. CCN(CC)CCn1c(=N)n(CC(O)c2ccc(Cl)c(Cl)c2)c2ccccc21 (stereo not given)

## Result
5.44
94.2
64.3
-0.392

###

Tested on: EKVX NSCLC
measurement_notes: NCI-60 one-dose screen, 48 h
measurement_context: 10 µM
Compounds without any hit were thinned out: in the full panel of roughly 83,000, 20% have a hit. Activity calls are given as the source filed them. The calls were made as follows: active = growth percent below 10; inactive = the rest.
Could you please pick one outcome from this set? active, inactive

## Task Hi team, can someone confirm the assay call for NC1CCC(Nc2nc(NCc3ccc(-c4cccs4)nc3)c3ncn(C4CCCC4)c3n2)CC1 (stereo not drawn) ?
## Result active

## Task Would you mind telling me which call this test gave COc1ccc(/C=C(\c2cc(OC)c(OC)c(OC)c2)c2nnc(-c3cccs3)o2)cc1 ?
## Result inactive

## Task Any idea what this test logged for O=C(N/N=C\c1cc(Cl)ccc1O)c1ccncc1 ?
## Result inactive

## Task Dear all, I need the recorded test outcome for CN(C1c2ccccc2Oc2ccccc21)S(=O)(=O)c1cc(Cl)ccc1Cl , thank you.
## Result inactive

## Task Assay result, entry O=C1CC(c2cccc(-c3cccnc3)c2)=Nc2ccc(Br)cc2N1 — outcome?
## Result inactive

More entries:
## Task Call for entry COc1cc(NS(C)(=O)=O)ccc1Nc1c2ccc(Cl)cc2nc2c(OC)cccc12 :
## Result inactive

## Task Dear colleague, could you share the recorded outcome for CC(=O)n1nc(C(=O)OC(C)(C)C)c2cc(F)c(F)cc21 when you have a moment?
## Result inactive

## Task Just curious, what result did C[N+]1=C(/C=C/c2ccc(I)cc2)C(C)(C)c2ccccc21 get here?
## Result inactive

## Task Identify the outcome logged in this assay for the compound shown: CC1(C)CC(OCCCC[P+](c2ccccc2)(c2ccccc2)c2ccccc2)CC(C)(C)N1O
## Result active

## Task # fetch the recorded call for Nc1ccc2c(c1)Cc1cc(N)c(Cl)cc1-2 here
## Result inactive

## Task Assay result, entry Cc1cn(C(=O)/C(Cl)=C(/Cl)C(=O)O)c2ccccc12 — outcome?
## Result inactive

## Task How did this test come out for Nc1nsc(C(=O)c2ccc(O)cc2)n1 ?
## Result inactive

## Task Identify the outcome logged in this assay for the compound shown: COCc1cc2c(cc1Br)OCO2
## Result inactive

###

Tested on: MDA-MB-231 breast
measurement_notes: NCI-60 one-dose screen, 48 h (100 = growth as untreated, 0 = no growth, -100 = all killed)
measurement_context: 10 µM
Compounds without any hit were thinned out: in the full panel of roughly 83,000, 20% have a hit.
measure_name: growth (%)
Answers are plain numbers, in %.

Known growth results, listed for orientation:
Entry under test: CS(=O)(=O)Nc1ccc(Nc2c3ccccc3nc3cc(Cl)ccc23)cc1 . Its growth was 86.5

For record COc1cc(CSc2nc3ccc(Cl)cc3c(=O)n2Cc2ccccc2)cc(OC)c1OC the listed growth is 38.8

Looking up COC(=O)[C@]12CC[C@@H](C)[C@H](C)[C@@H]1C1=CC[C@@H]3[C@@]4(C)CC(=O)[C@H](O)[C@@](C)(CO)[C@@H]4C(=O)C[C@@]3(C)[C@]1(C)CC2 , I see its growth listed as -34.2

Item: CCCCCCN=C(N)CCCCCCCCCCC(N)=NCCCCCC | growth: 32.1

Noted for Cc1nc(N)sc1Sc1nc2ccc(Cl)cc2c(=O)n1-c1ccc(Oc2ccccc2)cc1 : its growth reads 89.3

growth measured on COc1cc(C2C(C#N)=C(c3c[nH]c4ccccc34)Nc3nc(N)[nH]c(=O)c32)cc(OC)c1OC (centres undefined) = 89.5

Hi! Can you tell me growth for each of these compounds?
1. Cc1nc(Nc2nc3ccccc3o2)nc(-c2cccc([N+](=O)[O-])c2)c1C(=O)Nc1ccc(F)c(Cl)c1
2. Fc1ccc(Nc2ccnc(N3CCN(c4ccnc5cc(Cl)ccc45)CC3)n2)cc1
3. CCOC(=O)c1cc2c(n1Cc1ccccc1)-c1oncc1CC2

## Result
1: -17.4; 2: 56; 3: 95.8

###

Test system: OVCAR-5 ovarian
measurement_notes: NCI-60 one-dose screen, 48 h (100 = growth as untreated, 0 = no growth, -100 = all killed)
measurement_context: 10 µM
Compounds without any hit were thinned out: in the full panel of roughly 83,000, 20% have a hit.
measure_name: growth (%)
Give bare numbers, in %.

Observe how each entry below is paired with its result.
Reported growth of COc1cc(C2=Nc3c/c(=C\c4c(O)[nH]c5ccc(Cl)cc45)ccc3=N2)cc(OC)c1OC : 79.6

Entry C[C@@H]1N=C(c2ccc(Br)cc2)Nc2nc3ccccn3c2C1=O , growth reported as 82.4

Memo: COc1ccc(-c2nnc(SCC(=O)c3ccccc3)o2)cc1 , reported growth: 100

Recorded growth (compound COc1ccc(-c2nc(-c3nc4ccc(C)cc4[nH]3)c3ccccn23)cc1 ): 88.5

Fill in growth for each of the 6 compounds listed.
1. Cc1ccc(NS(=O)(=O)c2ccccc2)c(NS(=O)(=O)c2ccccc2)c1
2. COc1ccc(C2C=C(c3ccc(Cl)c(Cl)c3)N=C3SC(C)=CN32)cc1OC (stereo not given)
3. COC(=O)CCCCCCCCC(C)c1ccc(C(C)=O)cc1 (stereo not given)
4. Clc1cc(Cl)c(Cl)c(-c2nc(-c3cccnc3)cs2)c1
5. CC(=O)OC1Oc2ccccc2-c2oc(=O)c(-c3ccc(F)cc3)cc21 (stereo not given)
6. O=C(O)CNS(=O)(=O)c1ccc(OCCOc2ccc(S(=O)(=O)NCC(=O)O)cc2)cc1

## Result
1: 104; 2: 97.1; 3: 98.4; 4: 79.6; 5: 104; 6: 104

###

Test system: SK-OV-3 ovarian
measurement_notes: NCI-60 one-dose screen, 48 h (100 = growth as untreated, 0 = no growth, -100 = all killed)
measurement_context: 10 µM
This is part of a sample that, as a whole, favours compounds with a hit. Of some 83,000 tested, about 20% had one in any assay.
measure_name: growth (%)
One number for each entry, in %.

A selection of reference data follows.
Measured growth for this entry Cc1ccc2c(c1)-c1cc(C)nn1-c1ccc(C#N)cc1O2 on SK-OV-3 ovarian: 53.3

growth on SK-OV-3 ovarian for CCOc1nc(-c2ccccc2)cc2c(O)c(C(=O)N/N=C/c3ccc(OC)cc3)[nH]c(=O)c12 is 95.5

GET /values?item= CNC(=O)c1cc(Oc2ccc(NC(=O)Nc3ccc(Cl)c(OC(C)C)c3)c(F)c2)ccn1 &system= SK-OV-3 ovarian returns growth: 82.8

Form field, growth with SK-OV-3 ovarian, item Cc1ccc(-n2nnc3c(sc4ccccc43)c2=O)cc1 : 9.88

Turning now to a further record.
The measured growth that COc1ccc(-c2[nH]ncc2/C=C/c2cc(C(F)(F)F)[nH]c(=O)n2)cc1 showed for SK-OV-3 ovarian is 100
